Entries and their MIC
- Test system: Mycobacterium tuberculosis
- assayNotes: Antitubercular activity against Mycobacterium tuberculosis H37Rv ATCC 27294 after 5 to 8 days by microplate alamar blue assay
- Format: functional
parameterMeasured: MIC

[[record]]
itemsmiles = "Cc1ccc(N/N=C2\\C(=O)Nc3c(ccc(Cl)c3Cl)C2=O)cc1"
value = "< 6.25 µg/mL"

[[record]]
itemsmiles = "Cc1cccc(N/N=C2\\C(=O)Nc3cc([N+](=O)[O-])ccc3C2=O)c1"
value = "> 6.25 µg/mL"

[[record]]
itemsmiles = "O=C1Nc2c(Cl)cccc2C(=O)/C1=N/Nc1ccccc1"
value = "< 6.25 µg/mL"

[[record]]
itemsmiles = "O=C1Nc2cc([N+](=O)[O-])ccc2C(=O)/C1=N/Nc1ccc(Cl)c(F)c1"
value = "< 6.25 µg/mL"

[[record]]
itemsmiles = "O=C1Nc2cc([N+](=O)[O-])ccc2C(=O)/C1=N/Nc1ccc(F)cc1"
value = "< 6.25 µg/mL"

[[record]]
itemsmiles = "Cc1c(Cl)cccc1N/N=C1\\C(=O)Nc2c(cccc2[N+](=O)[O-])C1=O"
value = "< 6.25 µg/mL"

[[record]]
itemsmiles = "CO[C@H]1/C=C/O[C@@]2(C)Oc3c(C)c(O)c4c(O)c(c(/C=N/N5CCN(C)CC5)c(O)c4c3C2=O)NC(=O)/C(C)=C\\C=C\\[C@H](C)[C@H](O)[C@@H](C)[C@@H](O)[C@@H](C)[C@H](OC(C)=O)[C@@H]1C"
value = "0.015 µg/mL"

[[record]]
itemsmiles = "COc1ccc(N/N=C2\\C(=O)Nc3c(Cl)ccc(Cl)c3C2=O)c(C)c1"
value = "> 6.25 µg/mL"

[[record]]
itemsmiles = "COc1ccc(N/N=C2\\C(=O)Nc3c(cccc3[N+](=O)[O-])C2=O)cc1"
value = "> 6.25 µg/mL"

[[record]]
itemsmiles = "O=C1Nc2c(cccc2[N+](=O)[O-])C(=O)/C1=N/Nc1ccc(F)c(Cl)c1"
value = "< 6.25 µg/mL"

[[record]]
itemsmiles = "O=C1Nc2ccccc2C(=O)/C1=N/Nc1cccc(Cl)c1"
value = "> 6.25 µg/mL"

[[record]]
itemsmiles = "Cc1cccc(N/N=C2\\C(=O)Nc3cc(C)ccc3C2=O)c1"
value = "< 6.25 µg/mL"

